- assay: HUVEC growth inhibition – cell-based, human, primary screen (AID 575);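 note: 100% = median of untreated cell wells with 0.1% DMSO on each plate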
- condition set: HUVEC proliferation, CellTiter-Glo luminescence, 72 h; at 10 µM; stronger effect = lower value
Listed next: entries and their corresponding viability.
The response must be a number in % with no trailing unit.

For record CCOC(=O)N1CCC(=C2c3ccc(Cl)cc3CCc3cccnc32)CC1 the listed viability is 52.7

For record O=C(COC(=O)c1ccco1)NCc1cccs1 the listed viability is 98.9

For record C[C@]12C=CC(=O)C=C1CC[C@@H]1[C@@H]2[C@@H](O)C[C@@]2(C)[C@H]1CC[C@]2(O)C(=O)COC(=O)CCC(=O)O the listed viability is 80.3

For record COc1ccccc1-n1c(C)nnc1SCC(=O)Nc1cccc(C(C)=O)c1 the listed viability is 101

For record Cc1cc(C)n(-c2nc3sc4c(c3c3nnc(SC(C)C)n23)CC(C)(C)OC4)n1 the listed viability is 96.6

For record O=C(Nc1ccc(N2CCCC2)cc1)c1cccc(F)c1 the listed viability is 51.7

###

- assay: reversal of MRP1-mediated doxorubicin resistance, pilot screen, H69AR cells, doxorubicin co-treatment (AID 601)
- condition set: H69AR cells + 2 uM doxorubicin, CellTiter-Glo, 72 h; measured here: viability with 2 uM doxorubicin; at 10 µM; stronger effect = lower value
Peptide text beside a SMILES is read from it. * marks the point of attachment. Boc = CC(C)(C)OC(=O)*
Listed next: entries and their corresponding viability.
The response must be a number in % with no trailing unit.

Example cases with answers are listed next.
molecule: CCc1c(C(=O)Nc2ncn(Cc3cccc(C)c3)n2)csc1C
obs value: 81.3
//
molecule: CCOC(=O)C1C2C=CC3(CN(Cc4ccco4)C(=O)C13)O2 (stereo not given)
obs value: 89.7
//
molecule: CCOC(=O)c1c(C)oc2c1c1c(c3ccccc32)OCN(Cc2cccnc2)C1
obs value: 21.8
//
molecule: Cc1nnc(SCC(=O)NC(C)(C)C)n1CCc1ccccc1
obs value: 91.4
//
molecule: COc1cccc(N2CCN(c3ncnc4c3[nH]c3ccc(F)cc34)CC2C)c1 (stereo not given)
obs value: 4.56
//
molecule: CC(=O)O[C@]1(C(C)=O)CC[C@H]2[C@@H]3C=C(Cl)C4=CC(=O)CC[C@]4(C)[C@H]3CC[C@@]21C
obs value: 54.4

For record CSCCC(NC(=O)OC(C)(C)C)C(=O)NC(CC(C)C)C(N)=O (stereo not drawn) (Boc-Met-Leu-NH2; configuration not given here) the listed viability is 90.4

For record Cc1cc(C(=O)Nc2sc3c(c2C#N)CCCCC3)cs1 the listed viability is 81.7

For record COc1ccc(-c2nc(CS(=O)CC(=O)N3CCCC3)c(C)o2)cc1 (stereo not given) the listed viability is 81.8

For record CN1CCN(CC#CCC(O)(c2ccccc2)C2CCCC2)CC1 (stereo not given) the listed viability is 90.5

For record CC(=O)OCC(=O)[C@@]12OC(C)(C)O[C@@H]1C[C@H]1[C@@H]3C[C@H](F)C4=CC(=O)C=C[C@]4(C)[C@@]3(F)[C@@H](O)C[C@@]12C the listed viability is 104

For record Cc1csc(NC(=O)c2ccccc2C(=O)O)n1 the listed viability is 95.8

For record COC(=O)c1ccccc1NC(=O)c1ccc(-c2ccccc2F)o1 the listed viability is 53.2
